Give measured TGI for each item. Keep answers brief.
- Test system: MDA-N
- Test Details: NCI tumour cell line growth inhibition, 48 h

>>> experimental_result("C1CSCCSCCCSC2CCCCC2SC1 (centres undefined)")
"> 100 µM"
>>> experimental_result("COc1ccc(/C(C)=N/NC(=O)c2ccncc2)c(OC)c1")
"> 10 µM"
>>> experimental_result("Cc1c2ccn(O)cc2c(C)c2c1nc1ccccc12")
"> 100 µM"

Quick one: give me TGI for each item below, same order please.
1. COC(=O)c1c(C(=O)OC)c2ccccn2c1-c1cc(OC)c(Br)c(=O)o1
2. C=C1CC2(CC(c3ccccc3Cl)OC(c3ccccc3Cl)C2)OC1=O (centres undefined)
3. CCOC(=O)c1nc2ccc(C(F)(F)F)cc2nc1Nc1cc(OC)c(OC)c(OC)c1
4. COC(=O)/C=C\C(C#N)(C#N)N=Cc1cccc(OC)c1

Solution:
1. > 100 µM
2. 3.86 µM
3. > 100 µM
4. 17.2 µM

Go through the list and state TGI for each entry.
1. C[C@H]1/C(=C/C(=O)OCCN(C)C)CC[C@H]2[C@H]1C(=O)C[C@H]1C(C)(C)[C@@H](O)CC[C@]21C
2. O=C1c2ccccc2C(=O)N1CCSCC(CO)SCCN1C(=O)c2ccccc2C1=O (centres undefined)
3. O=C(Cc1ccccc1F)NC1=C(Cl)C(=O)c2ccccc2C1=O
4. CC(=O)Nc1cc2cc(N)ccc2oc1=O

Solution:
["> 100 µM", "> 100 µM", "11.8 µM", "> 100 µM"]

Hello, I would appreciate it if you could give TGI for each entry below.
1. COC1CCON1C(=O)c1ccccc1 (centres undefined)
2. CCCCn1c(CSc2ccc(Cl)cc2)c(C(=O)OCC)c2cc(OC)c(Br)cc21
3. COCCN(CCNC(=O)c1cccc2c(N)c3cccc(C)c3nc12)CCOC
4. O=c1c2ccccc2[nH]n1Cc1ccccc1
5. COc1ccc(/C=C/C(=O)/C=C/c2ccc(OC)cc2OC)c(OC)c1
6. C=CC(O)(CBr)CCC(Br)C(=C)C (centres undefined)

Solution:
1. > 10 µM
2. > 100 µM
3. 2.75 µM
4. > 100 µM
5. 6 µM
6. > 10 µM

For each listed entry, give its TGI.
1. O=c1[nH]c2ccccc2c2nc3ccccc3n12
2. BrC(Br)=C1C(=C(Br)Br)C(Br)C1Br (centres undefined)

Solution:
> 100 µM
1.92 µM

* * *

- Tested on: SK-MEL-2 melanoma
- Test Details: NCI tumour cell line growth inhibition, 48 h
Measurement Label: log10 TGI (log10 of the value in µM)
Scale: decimal log of TGI, TGI in µM.

These solved cases illustrate the format of a correct answer.
>>> experimental_result("CC(C)C(=O)N1Cc2cc(Cl)cc(Cl)c2OC(=O)c2ccccc21")
1.70
>>> experimental_result("COCCN(CCNC(=O)c1cccc2c(N)c3cccc(C)c3nc12)CCOC")
1.27
>>> experimental_result("COC(=O)/C=C\\C(C#N)(C#N)N=Cc1cccc(OC)c1")
1.51

# per-item lookup of log10 TGI; items listed below
1. CCCCC(CCCCCC(CCCC)NCc1ccc2c(c1)OCO2)NCc1ccc2c(c1)OCO2 (stereo not given)
2. CN(C)CCCN(CCC1CCCCC1)CCC1CCCCC1
3. S=C1NC2=C(COc3ccccc32)C(c2ccc(Cl)cc2)N1 (stereo not given)

Solution:
-0.08
0.57
1.46
